- assay-info: Half life in 2 to <6 years aged pediatric patient administered as single dose
- Assay type: ADME, organism-based
- measurement-context: human, in vivo
quantity: half-life (h)
# unit: h | format: bare number

IN: Could you share which half-life value was measured for Nc1nc2c(ncn2CCC(CO)CO)c(=O)[nH]1 [PENCICLOVIR] ?
OUT: 1.28

* * *

- assay-info: Apparent oral clearance in 6 to <=12 years aged pediatric patient administered as single dose
- Format: ADME, organism-based
- measurement-context: human, in vivo
quantity: CL/F (mL/min)
State just the number; it will be interpreted in mL/min.

IN: Tell me the measured CL/F of "Nc1nc2c(ncn2CCC(CO)CO)c(=O)[nH]1" , please.
OUT: 578

* * *

- assay-info: Tmax in 2 to <6 years aged pediatric patient administered as single dose
- Format: ADME, organism-based
- measurement-context: human, in vivo
quantity: Tmax (h)
Write it as a number; the unit h goes unstated.

IN: Quick one: Tmax for "Nc1nc2c(ncn2CCC(CO)CO)c(=O)[nH]1" ?
OUT: 1.07

* * *

- assay-info: Cmax in 2 to <6 years aged pediatric patient administered as single dose
- Assay type: ADME, organism-based
- measurement-context: human, in vivo
quantity: Cmax (ng/mL)
Write the value in ng/mL as a bare number.

IN: Entry "Nc1nc2c(ncn2CCC(CO)CO)c(=O)[nH]1" : reported Cmax = ?
OUT: 2780

* * *

- assay-info: Half life in 6 to <=12 years aged pediatric patient administered as single dose
- Type: ADME, organism-based
- measurement-context: human, in vivo
quantity: half-life

IN: // lookup half-life for "Nc1nc2c(ncn2CCC(CO)CO)c(=O)[nH]1"
OUT: 1.62 h

* * *

- assay-info: Tmax in 1 to <2 years aged pediatric patient administered as single dose
- Format: ADME, organism-based
- measurement-context: human, in vivo
quantity: Tmax (h)
Express the result in h but write the number alone.

IN: Report Tmax for "Nc1nc2c(ncn2CCC(CO)CO)c(=O)[nH]1" please.
OUT: 1.08

* * *

- assay-info: Tmax in 6 to <=12 years aged pediatric patient administered as single dose
- Type: ADME, organism-based
- measurement-context: human, in vivo
quantity: Tmax (h)
Answer format: numeric, h implied, no suffix.

IN: Which Tmax reading was recorded for the compound "Nc1nc2c(ncn2CCC(CO)CO)c(=O)[nH]1" ?
OUT: 1

* * *

- assay-info: Half life in 1 to <2 years aged pediatric patient administered as single dose
- Assay type: ADME, organism-based
- measurement-context: human, in vivo
quantity: half-life (h)
Entry rule: numbers only, all in h.

IN: Consider the compound shown here: "Nc1nc2c(ncn2CCC(CO)CO)c(=O)[nH]1" What is its recorded half-life?
OUT: 1.2

* * *

- assay-info: Cmax in 1 to <2 years aged pediatric patient administered as single dose
- Assay type: ADME, organism-based
- measurement-context: human, in vivo
quantity: Cmax (ng/mL)
# number only, unit ng/mL dropped from output

IN: // query Cmax value for entry Nc1nc2c(ncn2CCC(CO)CO)c(=O)[nH]1 [PENCICLOVIR]
OUT: 3060

* * *

- assay-info: Apparent oral clearance in 2 to <6 years aged pediatric patient administered as single dose
- Format: ADME, organism-based
- measurement-context: human, in vivo
quantity: CL/F

IN: May I ask what CL/F has been recorded for "Nc1nc2c(ncn2CCC(CO)CO)c(=O)[nH]1" ?
OUT: 410 mL/min
